target: T1, Fc-tagged human PD-L1 extracellular domain (SinoBiological, cat. 10084-H02H) (human, UniProt Q9NZQ7 19-238); test: SPR, captured Fc-PD-L1 ECD, scFv analyte, kinetic
T1 construct: extracellular domain; also called hPD-L1; not shown: Fc tag of the bought protein
T1 sequence (Q9NZQ7 19-238): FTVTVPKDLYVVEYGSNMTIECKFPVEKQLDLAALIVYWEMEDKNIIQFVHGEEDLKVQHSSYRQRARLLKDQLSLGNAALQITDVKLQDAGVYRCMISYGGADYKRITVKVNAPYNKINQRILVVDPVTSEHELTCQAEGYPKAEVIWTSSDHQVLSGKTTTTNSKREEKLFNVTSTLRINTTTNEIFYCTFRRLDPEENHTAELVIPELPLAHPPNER
Entries and their koff
Give the quantity in s⁻¹, number only.

binder	valueUnit	koff
PRO1089 (scFv, V domains shown, also called 33-03-G02 VH-Y112A) VH: QVQLQESGPGLVKPSETLSLTCKVSGFSFSSGYDMCWIRQPPGKGLEWIGCVVAGSVDITYYASWAKGRVTISVDSSKNQFSLKLSSVTAADTAVYYCARKDAASDAFNLWGQGTLVTVSS VL: DIQMTQSPSSLSASVGDRVTITCQASQSINDYLAWYQQKPGKAPKLLIYKASTLASGVPSRFSGSGSGTDFTLTISSLQPEDFATYYCQQGYIITDIDNVFGTGTKVTVLG	s⁻¹	0.0328

# next binder below
Query: What value of measured koff is listed for PRO1434 (scFv, V domains shown, also called 33-03-G02 VL-Q108A/G109A) VH: QVQLQESGPGLVKPSETLSLTCKVSGFSFSSGYDMCWIRQPPGKGLEWIGCVVAGSVDITYYASWAKGRVTISVDSSKNQFSLKLSSVTAADTAVYYCARKDAYSDAFNLWGQGTLVTVSS VL: DIQMTQSPSSLSASVGDRVTITCQASQSINDYLAWYQQKPGKAPKLLIYKASTLASGVPSRFSGSGSGTDFTLTISSLQPEDFATYYCQAAYIITDIDNVFGTGTKVTVLG ?
Reply: 0.535
